# Tested on: HCT-116
# methodDescription: NCI-60 screening, one-dose (10 µM) and five-dose, SRB
# Assay type: cell-based, human
# conditionContext: Homo sapiens, HCT-116, 10 μM; HCT-116, Colon Cancer; read-out: Growth percentage
Each entry below carries its reported activity at 10 µM.
Number in %, nothing else.

- compound: "Cc1nc(SCC(=O)N2CCN(c3cc4c(cc3F)c(=O)c(C(=O)O)cn4C3CC3)CC2)sc1C(=O)/C=C/c1ccc(F)cc1 [Compound 4e]"
  result: 51.2

Item under review: Cc1nc(SCC(=O)N2CCN(c3cc4c(cc3F)c(=O)c(C(=O)O)cn4C3CC3)CC2)sc1C(=O)/C=C/c1ccc([N+](=O)[O-])cc1 [Compound 4h] . Reported activity at 10 µM? 33.8

Item under review: COc1ccc(/C=C/C(=O)c2sc(SCC(=O)N3CCN(c4cc5c(cc4F)c(=O)c(C(=O)O)cn5C4CC4)CC3)nc2C)cc1 [Compound 4j] . Reported activity at 10 µM? 103

Item under review: Cc1nc(SCC(=O)N2CCN(c3cc4c(cc3F)c(=O)c(C(=O)O)cn4C3CC3)CC2)sc1C(=O)/C=C/c1cccc([N+](=O)[O-])c1 [Compound 4g] . Reported activity at 10 µM? -73.5

Item under review: Cc1nc(SCC(=O)N2CCN(c3cc4c(cc3F)c(=O)c(C(=O)O)cn4C3CC3)CC2)sc1C(=O)/C=C/c1ccc(N(C)C)cc1 [Compound 4i] . Reported activity at 10 µM? 2.6

Item under review: Cc1nc(SCC(=O)N2CCN(c3cc4c(cc3F)c(=O)c(C(=O)O)cn4C3CC3)CC2)sc1C(=O)/C=C/c1cccc(Cl)c1 [Compound 4b] . Reported activity at 10 µM? 2.8

====

# Test system: K-562
# methodDescription: NCI-60 screening, one-dose (10 µM) and five-dose, SRB
# Format: cell-based, human
# conditionContext: Homo sapiens, K562; five-dose; K-562
Each entry below carries its reported IC50.
Number in µM, nothing else.

Item under review: Cc1nc(SCC(=O)N2CCN(c3cc4c(cc3F)c(=O)c(C(=O)O)cn4C3CC3)CC2)sc1C(=O)/C=C/c1cccc(F)c1 . Reported IC50? 2.4

Item under review: Cc1nc(SCC(=O)N2CCN(c3cc4c(cc3F)c(=O)c(C(=O)O)cn4C3CC3)CC2)sc1C(=O)/C=C/c1cccc(Cl)c1 . Reported IC50? 4.9

====

Each entry below carries its reported viability at 1.6 µM.
# methodDescription: In vitro cytotoxicity against normal cell line WI 38
# Assay type: cell-based
# conditionContext: human, WI-38 normal cell line; WI38, 1.6uM
# Excerpt: Detailed results of cytotoxicity of compounds 4b and 4d against normal cell Blank CC Sample No. 4b/WI38 sample no. 4d/WI38 conc. viability conc. viability
Number in %, nothing else.

- compound: "Cc1nc(SCC(=O)N2CCN(c3cc4c(cc3F)c(=O)c(C(=O)O)cn4C3CC3)CC2)sc1C(=O)/C=C/c1cccc(Cl)c1 [Compound 4b]"
  recordedEndpoint: "viability at 1.6 µM"
  result: 71.8

Next compound, viability at 1.6 µM to be filled in.
Item under review: Cc1nc(SCC(=O)N2CCN(c3cc4c(cc3F)c(=O)c(C(=O)O)cn4C3CC3)CC2)sc1C(=O)/C=C/c1cccc(F)c1 [Compound 4d] . Reported viability at 1.6 µM? 72.8

====

Each entry below carries its reported pIC50.
# Test system: KM12
# methodDescription: NCI-60 screening, one-dose (10 µM) and five-dose, SRB
# Type: cell-based, human
# conditionContext: Homo sapiens; five-dose; KM12
Reminder that pIC50 is minus the log10 of a molar concentration.

- compound: "Cc1nc(SCC(=O)N2CCN(c3cc4c(cc3F)c(=O)c(C(=O)O)cn4C3CC3)CC2)sc1C(=O)/C=C/c1cccc(Cl)c1 [Compound 4b]"
  result: 5.89

Next compound, pIC50 to be filled in.
Item under review: Cc1nc(SCC(=O)N2CCN(c3cc4c(cc3F)c(=O)c(C(=O)O)cn4C3CC3)CC2)sc1C(=O)/C=C/c1cccc(F)c1 [Compound 4d] . Reported pIC50? 6.16

====

# Tested on: SF-295
# methodDescription: NCI-60 screening, one-dose (10 µM) and five-dose, SRB
# Assay type: cell-based, human
# conditionContext: Homo sapiens; five-dose; SF-295
pIC50: −log10 of the molar value.
Each entry below carries its reported pIC50.

- chemicalString: "Cc1nc(SCC(=O)N2CCN(c3cc4c(cc3F)c(=O)c(C(=O)O)cn4C3CC3)CC2)sc1C(=O)/C=C/c1cccc(F)c1"
  recordedEndpoint: "pIC50"
  result: "< 4.00"

Notebook: pull reported pIC50 for SF-295, entry Cc1nc(SCC(=O)N2CCN(c3cc4c(cc3F)c(=O)c(C(=O)O)cn4C3CC3)CC2)sc1C(=O)/C=C/c1cccc(Cl)c1 < 4.00

====

# methodDescription: In vitro cytotoxicity against normal cell line WI 38
# Format: cell-based
# conditionContext: human, WI-38 normal cell line; WI38, 25uM
recordedEndpoint: viability at 25 µM (%)
Number in %, nothing else.

- chemicalString: "Cc1nc(SCC(=O)N2CCN(c3cc4c(cc3F)c(=O)c(C(=O)O)cn4C3CC3)CC2)sc1C(=O)/C=C/c1cccc(F)c1"
  viability at 25 µM [%]: 52.9

Next compound, viability at 25 µM to be filled in.
Item under review: Cc1nc(SCC(=O)N2CCN(c3cc4c(cc3F)c(=O)c(C(=O)O)cn4C3CC3)CC2)sc1C(=O)/C=C/c1cccc(Cl)c1 . Reported viability at 25 µM? 52.9

====

Each entry below carries its reported pIC50.
# Tested on: SK-MEL-2
# methodDescription: NCI-60 screening, one-dose (10 µM) and five-dose, SRB
# Format: cell-based, human
# conditionContext: Homo sapiens; five-dose; SK-MEL-2
pIC50: −log10 of the molar value.

Item under review: Cc1nc(SCC(=O)N2CCN(c3cc4c(cc3F)c(=O)c(C(=O)O)cn4C3CC3)CC2)sc1C(=O)/C=C/c1cccc(F)c1 . Reported pIC50? < 4.00

Item under review: Cc1nc(SCC(=O)N2CCN(c3cc4c(cc3F)c(=O)c(C(=O)O)cn4C3CC3)CC2)sc1C(=O)/C=C/c1cccc(Cl)c1 . Reported pIC50? < 4.00

====

# Tested on: CAKI-1
# methodDescription: NCI-60 screening, one-dose (10 µM) and five-dose, SRB
# Assay type: cell-based
# conditionContext: Homo sapiens; five-dose; CAKI-1
pIC50: −log10 of the molar value.
recordedEndpoint: pIC50

- chemicalString: "Cc1nc(SCC(=O)N2CCN(c3cc4c(cc3F)c(=O)c(C(=O)O)cn4C3CC3)CC2)sc1C(=O)/C=C/c1cccc(Cl)c1"
  pIC50: "< 4.00"

Next molecule, pIC50 to be filled in.
Item under review: Cc1nc(SCC(=O)N2CCN(c3cc4c(cc3F)c(=O)c(C(=O)O)cn4C3CC3)CC2)sc1C(=O)/C=C/c1cccc(F)c1 . Reported pIC50? < 4.00

====

Each entry below carries its reported IC50.
# Tested on: BT-549
# methodDescription: NCI-60 screening, one-dose (10 µM) and five-dose, SRB
# Assay type: cell-based
# conditionContext: Homo sapiens; five-dose; BT-549
Number in µM, nothing else.

- compound: "Cc1nc(SCC(=O)N2CCN(c3cc4c(cc3F)c(=O)c(C(=O)O)cn4C3CC3)CC2)sc1C(=O)/C=C/c1cccc(Cl)c1 [Compound 4b]"
  result: 35.5

Next compound, IC50 to be filled in.
Item under review: Cc1nc(SCC(=O)N2CCN(c3cc4c(cc3F)c(=O)c(C(=O)O)cn4C3CC3)CC2)sc1C(=O)/C=C/c1cccc(F)c1 [Compound 4d] . Reported IC50? 25.7

====

Each entry below carries its reported IC50.
# System: MDA-MB-468
# methodDescription: NCI-60 screening, one-dose (10 µM) and five-dose, SRB
# Format: cell-based, human
# conditionContext: Homo sapiens; five-dose; MDA-MB-468

- chemicalString: "Cc1nc(SCC(=O)N2CCN(c3cc4c(cc3F)c(=O)c(C(=O)O)cn4C3CC3)CC2)sc1C(=O)/C=C/c1cccc(Cl)c1"
  IC50: "> 100 µM"

Next molecule, IC50 to be filled in.
Item under review: Cc1nc(SCC(=O)N2CCN(c3cc4c(cc3F)c(=O)c(C(=O)O)cn4C3CC3)CC2)sc1C(=O)/C=C/c1cccc(F)c1 . Reported IC50? > 100 µM

====

# Test system: ACHN
# methodDescription: NCI-60 screening, one-dose (10 µM) and five-dose, SRB
# Type: cell-based, human
# conditionContext: Homo sapiens, five-dose
pIC50: −log10 of the molar value.
recordedEndpoint: pIC50

- molecule: "Cc1nc(SCC(=O)N2CCN(c3cc4c(cc3F)c(=O)c(C(=O)O)cn4C3CC3)CC2)sc1C(=O)/C=C/c1cccc(F)c1 [Compound 4d]"
  pIC50: "< 4.00"

Next molecule, pIC50 to be filled in.
Item under review: Cc1nc(SCC(=O)N2CCN(c3cc4c(cc3F)c(=O)c(C(=O)O)cn4C3CC3)CC2)sc1C(=O)/C=C/c1cccc(Cl)c1 [Compound 4b] . Reported pIC50? < 4.00
